Protein target, amino acids: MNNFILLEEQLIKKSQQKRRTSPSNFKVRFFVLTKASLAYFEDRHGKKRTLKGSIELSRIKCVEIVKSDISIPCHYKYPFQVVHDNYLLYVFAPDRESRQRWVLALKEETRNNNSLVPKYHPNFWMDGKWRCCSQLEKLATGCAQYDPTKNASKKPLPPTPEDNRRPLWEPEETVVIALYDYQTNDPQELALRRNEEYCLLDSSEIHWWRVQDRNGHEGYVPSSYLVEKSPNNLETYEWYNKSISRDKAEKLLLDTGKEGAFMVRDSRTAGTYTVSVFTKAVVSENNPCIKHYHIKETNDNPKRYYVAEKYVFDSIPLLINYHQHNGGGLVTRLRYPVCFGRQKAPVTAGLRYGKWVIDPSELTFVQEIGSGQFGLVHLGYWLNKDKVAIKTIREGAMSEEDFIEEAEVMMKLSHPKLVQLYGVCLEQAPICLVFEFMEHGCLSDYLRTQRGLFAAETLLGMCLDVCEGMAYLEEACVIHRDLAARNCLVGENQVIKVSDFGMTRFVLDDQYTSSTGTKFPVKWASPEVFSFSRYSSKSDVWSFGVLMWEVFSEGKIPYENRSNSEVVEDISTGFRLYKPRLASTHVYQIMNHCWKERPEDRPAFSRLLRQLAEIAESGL
For each entry below, report its Ki value.
Numbers only, in nM.

Some solved cases for reference:
molecule	result-value
CC(c1ncco1)n1cc(NC(=O)c2n[nH]c3c2CCC(C)(C)C3)cn1 (single isomer, unassigned) [Example 103a]	20
CC(c1cnn(C)c1)n1cc(NC(=O)c2n[nH]c3c2CCC(C)(C)C3)cn1 (single isomer, unassigned) [Example 91b]	19
CC12Cc3[nH]nc(C(=O)Nc4cnn(C(c5cccnc5)C5CC[S+]([O-])CC5)c4)c3CC1C2 (single isomer, unassigned) [Example 146d]	2
CN1CC(C(c2ccccc2)n2cc(NC(=O)c3n[nH]c4c3CCC(C)(C)C4)cn2)CN(C)C1=O (single isomer, unassigned) [Example 129a]	0.7

Look at each molecule and report its Ki.
1. CN(C)CCC(c1ccccc1)n1cc(NC(=O)c2n[nH]c3c2C2CC2CC3)cn1 (single isomer, unassigned) [Example 26a]
2. CCn1cc(C(C)n2cc(NC(=O)c3n[nH]c4c3CCC(C)(C)C4)cn2)cn1 (single isomer, unassigned) [Example 100a]
3. CN1CCC(C(c2ccccc2)n2cc(NC(=O)c3n[nH]c4c3CCC(C)(C)C4)cn2)CC1 (single isomer, unassigned) [Example 43a]
4. CN(C)CCC(c1ccccc1)n1cc(NC(=O)c2n[nH]c3c2CCC2(CC2)C3)cn1 (single isomer, unassigned) [Example 16b]
5. CNCCC(c1ccccc1)n1cc(NC(=O)c2n[nH]c3c2CCC(C)(C)C3)cn1 (single isomer, unassigned) [Example 39a]

result:
1: 2; 2: 17; 3: 0.2; 4: 7.9; 5: 0.7

Look at each molecule and report its Ki.
1. CC12Cc3[nH]nc(C(=O)Nc4cnn(C(CS(C)(=O)=O)c5cccnc5)c4)c3CC1C2 (single isomer, unassigned) [Example 93b]
2. CN(C)CC(c1ccccc1)n1cc(NC(=O)c2n[nH]c3c2CC(C)(C)C3)cn1 (single isomer, unassigned) [Example 96a]
3. CC12Cc3[nH]nc(C(=O)Nc4cnn(C(c5ccccc5)C5CCCCS5(=O)=O)c4)c3CC1C2 (single isomer, unassigned) [Example 143b]
4. CC1(C#N)CCc2c(C(=O)Nc3cnn(Cc4ccccc4)c3)n[nH]c2C1 (single isomer, unassigned) [Example 102b]

result:
[1, 57, 2, 10]

Look at each molecule and report its Ki.
1. CC1(C)CCc2c(C(=O)Nc3cnn(C(c4ccccc4)C4CNCCS4(=O)=O)c3)n[nH]c2C1 (single isomer, unassigned) [Example 127a]
2. CC1(C)CCc2c(C(=O)Nc3cnn(C4COCC4c4ccccc4)c3)n[nH]c2C1 (single isomer, unassigned) [Example 132a]
3. CC1(C)CCc2c(C(=O)Nc3cnn(C(c4nccs4)C4CCSCC4)c3)n[nH]c2C1 (single isomer, unassigned) [Example 85b]

result:
0.2
77
0.9

Look at each molecule and report its Ki.
1. CC1(C)Cc2[nH]nc(C(=O)Nc3cnn(Cc4ccccc4)c3)c2CC1CO (single isomer, unassigned) [Example 95b]
2. CNCCC(c1ccccc1)n1cc(NC(=O)c2n[nH]c3c2CCC(C)(C)C3)cn1 (single isomer, unassigned) [Example 39b]

result:
1: 320; 2: 6

Just for reference, patent US20160326142A1 is where these values come from.
